Source of measurements: paper PMC7819943

# binding signal annotations
Target: OsWRKY34 (Oryza sativa, UniProt Q0JBA9 1-250)
Sequence (Q0JBA9 entry or part of it): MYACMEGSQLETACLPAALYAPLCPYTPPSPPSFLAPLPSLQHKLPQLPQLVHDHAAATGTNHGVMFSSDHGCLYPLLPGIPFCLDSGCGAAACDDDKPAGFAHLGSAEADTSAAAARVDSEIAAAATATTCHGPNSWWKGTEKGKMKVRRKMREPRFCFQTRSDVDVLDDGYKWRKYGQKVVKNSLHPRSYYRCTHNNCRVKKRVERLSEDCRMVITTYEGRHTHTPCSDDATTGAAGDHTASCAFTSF
Test: protein-binding microarray (RPBM); PBS, 2% BSA, 51.3 ng/ul salmon testes DNA, 50 uM zinc acetate, 200 nM TF, 25 C, 1 h; high values mean tight binding
Details: protein: recombinant; tags: N-terminal polyhistidine and DsRed monomer fusion (pET32a); label: CyDye5-dUTP incorporated in the synthesized complementary strand; 3' TTTTT single-stranded linker to array surface; dsDNA, one strand shown
Over roughly 68,000 sequences, “fluorescence intensity (a.u.)” has its median near 9,100; the highest 2% begin near 16,000. The sample holds the highest values, similar sequences and a random draw of the others, so the mix is not that of the screen.

Observe how each entry below is paired with its result.
query sequence	binding signal
CTCCGCCTCGCGCCGTTGTCGCCGTCGCCTCGCGCCGCCACGGAGTCACCTAGTGCAG	10100 fluorescence intensity (a.u.)
TGTTTTGGCTTTGGTCCCTTGCTTTTCTTTGGAGGTTGGACGGAGTCACCTAGTGCAG	10400 fluorescence intensity (a.u.)
TAACTGCGTTGACATGTCGCCTTGCTATACTCACATTCTTCGGAGTCACCTAGTGCAG	9470 fluorescence intensity (a.u.)
TGTCTAGCTGCTCCGACCAGTCAACCGTTGAACGTTGACTCGGAGTCACCTAGTGCAG	14700 fluorescence intensity (a.u.)
TTTCTTCATTTCATGATTGTATATTCTGGTGTTTTTGTGGCGGAGTCACCTAGTGCAG	9250 fluorescence intensity (a.u.)
CCATGTCCGGATTCTCTAGGATTGCCTCCAATTTCTTCGCCGGAGTCACCTAGTGCAG	8890 fluorescence intensity (a.u.)
GGTTTCGGTCTCGGTTTTTTCGGTTCGGTTCTTCGGTTCGCGGAGTCACCTAGTGCAG	9660 fluorescence intensity (a.u.)
GTTTTTGTGCTTGGTGGTGGTGGTGGGTGATTTGCAGGGGCGGAGTCACCTAGTGCAG	31700 fluorescence intensity (a.u.)
ACGGTGTATATTTGTGGTGTGGCGGGTGTGGCATTGGATTCGGAGTCACCTAGTGCAG	16700 fluorescence intensity (a.u.)
TGTATCTCAAATTCTTTCAGTTGGTTTTGTGCTCTTTTTACGGAGTCACCTAGTGCAG	8920 fluorescence intensity (a.u.)

Kindly indicate its recorded binding signal. Item: TCTTGTATTCTCCACTAGTCTTGGGTCATCCATTCTTCAGCGGAGTCACCTAGTGCAG
8550 fluorescence intensity (a.u.)

Kindly indicate its recorded binding signal. Item: TGAGGTGAGGGCAGGGGCAGGGGCAGGGCGGACTGGCCAACGGAGTCACCTAGTGCAG
8680 fluorescence intensity (a.u.)
